# Target of assay: EGFR exon 20 ASV Ins V769_D770 (Ba/F3 cells) (Homo sapiens, UniProt P00533, INS769ASV)
# Construct: expressed in transfected cells; host or cells: Ba/F3 (murine pro-B cells), retroviral transduction, puromycin selection, IL3-independent pool
# Sequence (P00533 with tags, fused parts or gaps INS769ASV): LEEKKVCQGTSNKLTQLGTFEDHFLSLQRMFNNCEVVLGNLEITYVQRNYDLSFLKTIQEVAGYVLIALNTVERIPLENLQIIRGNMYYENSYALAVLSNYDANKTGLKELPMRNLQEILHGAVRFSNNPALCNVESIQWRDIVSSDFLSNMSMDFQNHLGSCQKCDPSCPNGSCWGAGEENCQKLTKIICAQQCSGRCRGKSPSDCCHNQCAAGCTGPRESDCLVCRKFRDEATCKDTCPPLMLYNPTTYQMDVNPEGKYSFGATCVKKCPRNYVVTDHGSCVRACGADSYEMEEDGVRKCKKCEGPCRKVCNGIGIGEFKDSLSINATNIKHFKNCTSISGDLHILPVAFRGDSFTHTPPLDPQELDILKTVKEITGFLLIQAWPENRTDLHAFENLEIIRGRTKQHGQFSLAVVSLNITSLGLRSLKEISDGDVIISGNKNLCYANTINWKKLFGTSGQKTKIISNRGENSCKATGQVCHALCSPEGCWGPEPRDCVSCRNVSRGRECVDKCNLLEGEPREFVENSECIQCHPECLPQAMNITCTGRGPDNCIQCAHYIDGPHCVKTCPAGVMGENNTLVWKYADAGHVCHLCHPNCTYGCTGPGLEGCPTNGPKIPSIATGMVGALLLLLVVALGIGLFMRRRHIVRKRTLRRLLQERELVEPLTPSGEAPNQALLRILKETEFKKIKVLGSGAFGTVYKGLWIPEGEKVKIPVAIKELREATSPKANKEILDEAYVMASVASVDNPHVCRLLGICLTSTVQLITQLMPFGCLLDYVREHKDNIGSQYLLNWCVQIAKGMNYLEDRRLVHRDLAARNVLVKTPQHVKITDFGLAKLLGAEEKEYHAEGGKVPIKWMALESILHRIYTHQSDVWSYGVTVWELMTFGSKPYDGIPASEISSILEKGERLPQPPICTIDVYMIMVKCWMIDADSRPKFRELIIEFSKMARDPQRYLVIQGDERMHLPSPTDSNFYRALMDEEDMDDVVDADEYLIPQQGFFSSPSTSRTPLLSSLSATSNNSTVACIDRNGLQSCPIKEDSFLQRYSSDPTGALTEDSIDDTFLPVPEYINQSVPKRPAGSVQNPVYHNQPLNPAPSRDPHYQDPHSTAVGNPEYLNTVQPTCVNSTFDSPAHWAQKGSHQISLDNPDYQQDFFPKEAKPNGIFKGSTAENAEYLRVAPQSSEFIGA
# Experiment summary: Inhibitor activity on EGFR-dependent cell growth (CellTiter-Glo, 72 h), Ba/F3 EGFR exon 20 ASV Ins
# Format: cell-based
# Condition description: read-out: BaF3 ASV IC50
Measured attribute: IC50

# Compound, Observed value
measured = [
    ("COc1c(Cl)cccc1Nc1c(-c2ccnc(C)n2)[nH]c2c(C[C@H]3COCCO3)c[nH]c(=O)c12 [compound 659]", "< 100 nM"),
    ("COc1ncc2nccc(-c3[nH]c4c(c3Nc3cccc(F)c3CC(F)F)C(=O)NCC4)c2n1 [Compound 795]", "100 to 1000 nM"),
    ("COc1c(Cl)cccc1Nc1c(-c2ccnc(-c3cnn(C)c3)n2)[nH]c2c1C(=O)NCC2 [compound 121]", "< 100 nM"),
    ("COc1ccc2nccc(-c3[nH]c4c(c3Nc3cccc(Cl)c3OC)C(=O)NCC4)c2c1 [Compound 773]", "> 1000 nM"),
    ("COc1c(F)cccc1Nc1c(-c2ccncn2)[nH]c2c1C(=O)NCC2C[C@H]1COCCO1 (single isomer, unassigned) [Compound 530]", "< 100 nM"),
    ("COc1c(Cl)cc(F)cc1Nc1c(-c2ccnc(C)n2)[nH]c2c1C(=O)NC[C@@H]2C[C@@H]1COCCO1 [compound 651]", "< 100 nM"),
    ("COCC[C@H]1CNC(=O)c2c1[nH]c(-c1ccncc1F)c2Nc1cccc(F)c1OC(F)F [Compound 471]", "100 to 1000 nM"),
    ("COc1c(Cl)cccc1Nc1c(-c2ccnc3ccc(OCC(F)(F)F)nc23)[nH]c2c1C(=O)NCC2 [compound 763]", "< 100 nM"),
    ("COc1cc2nccc(-c3[nH]c4c(c3Nc3cccc(Cl)c3OC)C(=O)NCC4)c2nc1OC [compound 730]", "< 100 nM"),
    ("COc1nc2c(-c3[nH]c4c(c3Nc3cccc(Cl)c3OC)C(=O)NCC4)ccnc2cc1F [compound 477]", "< 100 nM"),
    ("COc1c(Cl)cccc1Nc1c(-c2ccnc3ccc(OC[C@@H]4CCO4)nc23)[nH]c2c1C(=O)NCC2 [compound 735]", "< 100 nM"),
    ("COc1c(Cl)cccc1Nc1c(-c2ccncc2F)[nH]c2c1C(=O)NCC2C[C@@H]1CO[C@@H](CN(C)C)CO1 (single isomer, unassigned) [Compound 562]", "< 100 nM"),
    ("COc1c(Cl)cccc1Nc1c(-c2ccnc3cnc(OCCN4CCOCC4)nc23)[nH]c2c1C(=O)NCC2 [compound 506]", "100 to 1000 nM"),
    ("COc1c(Cl)cccc1Nc1c(-c2ccncc2F)[nH]c2c1C(=O)NCC2CC1CCO1 (single isomer, unassigned) [Compound 786]", "< 100 nM"),
    ("COc1c(Cl)cccc1Nc1c(-c2ccnc(N)n2)[nH]c2c1C(=O)NC[C@@H]2C [186a]", "< 100 nM"),
]

###

Entries and their pIC50
# Target of assay: EGFR exon 20 ASV Ins V769_D770 (Ba/F3 cells) (Homo sapiens, UniProt P00533, INS769ASV)
# Construct: expressed in transfected cells; host or cells: Ba/F3 (murine pro-B cells), retroviral transduction, puromycin selection, IL3-independent pool
# Experiment summary: Inhibitor activity on EGFR phosphorylation (pEGFR AlphaLISA, 2 h), Ba/F3 EGFR exon 20 ASV Ins
# Assay type: cell-based
# Condition description: EGFR phosphorylation, AlphaLISA, 2 hours; read-out: ASV IC50 (pEGFR)
pIC50: −log10 of the molar value.
Measured attribute: pIC50

# Compound, Observed value
rows = [
    ("COc1c(Cl)cccc1Nc1c(-c2ccnc(NCCF)n2)[nH]c2c1C(=O)NCC2", "> 7.00"),
    ("COc1c(Cl)cccc1Nc1c(-c2ccnc(C)n2)[nH]c2c1C(=O)NC[C@H]2C[C@@H]1COCCO1 (single isomer, unassigned)", "> 7.00"),
    ("COc1c(Cl)cccc1Nc1c(-c2ccncc2F)[nH]c2c1C(=O)NC[C@@]21CCN(CC(F)(F)F)C1", "> 7.00"),
    ("COc1c(Cl)cccc1Nc1c(-c2ccnc(NC(C)=O)n2)[nH]c2c1C(=O)NCC2", "6.00 to 7.00"),
    ("COc1c(F)cccc1Nc1c(-c2nc(N)ncc2F)[nH]c2c1C(=O)NCC2", "< 6.00"),
    ("COc1c(F)cccc1Nc1c(-c2nnc3cc(C)ccn23)[nH]c2c1C(=O)NCC2", "< 6.00"),
    ("COc1c(F)cccc1Nc1c(-c2ccnc(C)c2)[nH]c2c1C(=O)NCC2", "6.00 to 7.00"),
    ("COc1c(Cl)cccc1Nc1c(-c2ccnc(N)n2)[nH]c2c1C(=O)N[C@@H](C)C2 [187a]", "> 7.00"),
    ("C=CC(=O)N1CCC2(CC1)CNC(=O)c1c2[nH]c(-c2ccnc3ccc(OC)nc23)c1Nc1cccc(F)c1OC", "> 7.00"),
    ("COc1nccc(-c2[nH]c3c(c2Nc2cccc(Cl)c2OC)C(=O)NCC3)n1", "< 6.00"),
    ("CNc1nccc(-c2[nH]c3c(c2Nc2cccc(Cl)c2OC)C(=O)NCC3)n1", "> 7.00"),
    ("COc1c(F)cccc1Nc1c(-c2snc3cccnc23)[nH]c2c1C(=O)NCC2", "< 6.00"),
    ("Nc1nccc(-c2[nH]c3c(c2Nc2cccc(F)c2F)C(=O)NCC3)n1", "> 7.00"),
]

###

# Target of assay: EGFR exon 20 ASV Ins V769_D770 (Ba/F3 cells) (Homo sapiens, UniProt P00533, INS769ASV)
# Construct: expressed in transfected cells; host or cells: Ba/F3 (murine pro-B cells), retroviral transduction, puromycin selection, IL3-independent pool
# Experiment summary: Inhibitor activity on EGFR-dependent cell growth (CellTiter-Glo, 72 h), Ba/F3 EGFR exon 20 ASV Ins
# Type: cell-based
# Condition description: read-out: BaF3 ASV IC50
Entries and their IC50

# Molecule, Target of assay, IC50
measured = [
    ("COc1ncc2nccc(-c3[nH]c4c(c3Nc3cccc(C)c3F)C(=O)NCC4)c2n1 [Compound 804]", "EGFR exon 20 ASV Ins V769_D770 (Ba/F3 cells) (Homo sapiens, UniProt P00533, INS769ASV)", "100 to 1000 nM"),
    ("COc1c(Cl)cccc1Nc1c(-c2ccnc(NC(C)=O)n2)[nH]c2c1C(=O)NCC2 [compound 220]", "EGFR exon 20 ASV Ins V769_D770 (Ba/F3 cells) (Homo sapiens, UniProt P00533, INS769ASV)", "100 to 1000 nM"),
    ("COc1c(Cl)cccc1Nc1c(-c2ccnc3ccc(OC4CCC4)nc23)[nH]c2c1C(=O)NCC2 [compound 768]", "EGFR exon 20 ASV Ins V769_D770 (Ba/F3 cells) (Homo sapiens, UniProt P00533, INS769ASV)", "< 100 nM"),
    ("COc1c(Cl)cccc1Nc1c(-c2ccncc2F)[nH]c2c1C(=O)NCC2CC1CCO1 (single isomer, unassigned) [Compound 785]", "EGFR exon 20 ASV Ins V769_D770 (Ba/F3 cells) (Homo sapiens, UniProt P00533, INS769ASV)", "< 100 nM"),
]

###

# Target of assay: EGFR WT (Ba/F3 cells) (Homo sapiens, UniProt P00533)
# Sequence (P00533 25-1210): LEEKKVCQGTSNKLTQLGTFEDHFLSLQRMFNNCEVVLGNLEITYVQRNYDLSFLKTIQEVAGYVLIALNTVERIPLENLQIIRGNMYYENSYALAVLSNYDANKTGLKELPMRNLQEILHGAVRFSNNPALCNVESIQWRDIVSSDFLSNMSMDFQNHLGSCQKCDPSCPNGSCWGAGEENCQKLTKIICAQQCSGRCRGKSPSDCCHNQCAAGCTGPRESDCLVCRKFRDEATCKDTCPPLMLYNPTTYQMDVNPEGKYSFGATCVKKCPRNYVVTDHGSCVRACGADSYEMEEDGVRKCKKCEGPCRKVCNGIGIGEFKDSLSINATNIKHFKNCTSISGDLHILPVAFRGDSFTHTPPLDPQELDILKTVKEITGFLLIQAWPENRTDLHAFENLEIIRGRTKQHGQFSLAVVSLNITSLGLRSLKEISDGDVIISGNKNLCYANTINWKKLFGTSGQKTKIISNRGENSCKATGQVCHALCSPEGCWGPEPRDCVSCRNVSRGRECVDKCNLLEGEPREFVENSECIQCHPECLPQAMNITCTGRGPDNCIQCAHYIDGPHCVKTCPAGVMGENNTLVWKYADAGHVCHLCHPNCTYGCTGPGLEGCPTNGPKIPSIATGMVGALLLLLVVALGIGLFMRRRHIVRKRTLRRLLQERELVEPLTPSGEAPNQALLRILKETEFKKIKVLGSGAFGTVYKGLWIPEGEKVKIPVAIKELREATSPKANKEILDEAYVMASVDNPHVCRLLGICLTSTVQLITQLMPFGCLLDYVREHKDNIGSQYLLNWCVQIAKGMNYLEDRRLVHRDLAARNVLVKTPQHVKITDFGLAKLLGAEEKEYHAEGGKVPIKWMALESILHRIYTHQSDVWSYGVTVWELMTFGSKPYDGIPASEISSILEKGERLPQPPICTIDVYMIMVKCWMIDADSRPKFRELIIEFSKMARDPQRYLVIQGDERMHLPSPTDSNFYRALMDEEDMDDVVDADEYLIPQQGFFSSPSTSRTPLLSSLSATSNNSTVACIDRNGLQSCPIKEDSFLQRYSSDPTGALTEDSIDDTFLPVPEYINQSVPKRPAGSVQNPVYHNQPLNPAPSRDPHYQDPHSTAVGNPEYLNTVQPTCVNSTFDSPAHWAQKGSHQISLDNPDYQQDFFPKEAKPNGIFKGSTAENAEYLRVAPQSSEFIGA
# Experiment summary: Inhibitor activity on EGFR-dependent cell growth (CellTiter-Glo, 72 h), Ba/F3 EGFR WT
# Condition description: read-out: BaF3 WT IC50
pIC50: −log10 of the molar value.
Entries and their pIC50

# Mol, Target of assay, pIC50
rows = [
    ("COc1c(Nc2c(-c3ccnc(N)n3)[nH]c3c2C(=O)NCC3)cccc1C(F)(F)F", "EGFR WT (Ba/F3 cells) (Homo sapiens, UniProt P00533)", "< 6.00"),
    ("COc1c(Cl)cccc1Nc1c(-c2ccnc3cccnc23)[nH]c2c1C(=O)NCC2", "EGFR WT (Ba/F3 cells) (Homo sapiens, UniProt P00533)", "6.00 to 7.00"),
    ("COc1nc2c(-c3[nH]c4c(c3Nc3cccc(F)c3OC)C(=O)NCC4)ccnc2cc1C", "EGFR WT (Ba/F3 cells) (Homo sapiens, UniProt P00533)", "> 7.00"),
    ("COCCNc1ccc2nccc(-c3[nH]c4c(c3Nc3cccc(Cl)c3OC)C(=O)NCC4)c2n1", "EGFR WT (Ba/F3 cells) (Homo sapiens, UniProt P00533)", "> 7.00"),
    ("COc1c(Cl)cccc1Nc1c(-c2ccncn2)[nH]c2c(C[C@@H]3COCCO3)c[nH]c(=O)c12", "EGFR WT (Ba/F3 cells) (Homo sapiens, UniProt P00533)", "< 6.00"),
    ("CNc1ccc2nccc(-c3[nH]c4c(c3Nc3cccc(Cl)c3OC)C(=O)NCC4)c2n1", "EGFR WT (Ba/F3 cells) (Homo sapiens, UniProt P00533)", "> 7.00"),
    ("CCOc1c(F)cccc1Nc1c(-c2ccnc(N)n2)[nH]c2c1C(=O)NCC2", "EGFR WT (Ba/F3 cells) (Homo sapiens, UniProt P00533)", "< 6.00"),
]
